# System: Caco-2
# assayProtocol: drug sensitivity score (DSS) for viability; higher = more toxic; extreme values may be limits of the assay
# protocolConditions: 72 h

smilesText	drug sensitivity score
C/C(=N\NC(=O)[C@@H]1C(=O)NC[C@H]1c1ccccc1)c1cccc(Br)c1	0
CCCCN(CCCC)CCCOC(=O)c1ccc(N)cc1	0.9
CCCCN(Cc1ccc(C(=O)NO)cc1)C(=O)Nc1ccccc1	3.8
COc1ccc(NC(=O)c2ccc(-c3ccc(-c4noc(C)n4)cc3C)cc2)cc1N1CCN(C)CC1	4
CC(C)(C)C(=O)OCOP(=O)(COCCn1cnc2c(N)ncnc21)OCOC(=O)C(C)(C)C	1.9
